- TARGET_OF_ASSAY: T1, murine serum albumin (mouse, UniProt P07724 25-608)
- T1 construct: also called MuSA; mouse serum albumin
- TEST_PROTOCOL: SPR (Biacore), albumin immobilized on CM5 chip

BINDER	binding result
SABA1.1 (designed binder) MGVSDVPRDLEVVAATPTSLLISWHSYYEQNSYYRITYGETGGNSPVQEFTVPYSQTTATISGLKPGVDYTITVYAVYGSKYYYPISINYRTEIDKPSQHHHHHH	no binding
SABA2.1 (designed binder, His6-tagged Adnectin core 2) MGVSDVPRDLEVVAATPTSLLISWPKYDKTGHYYRITYGETGGNSPVQEFTVPTRQTTATISGLKPGVDYTITVYAVSKDDYYPHEHRPISINYRTEIDKPSQHHHHHH	no binding
SABA5.1 (designed binder, His6-tagged Adnectin core 5; same BC, DE and FG loops as SABA4) MGVSDVPRDLEVVAATPTSLLISWEDDSYYSRYYRITYGETGGNSPVQEFTVPSDLYTATISGLKPGVDYTITVYAVTYDVTDLIMHEPISINYRTEIDKPSQHHHHHH	no binding

These measurements were taken from patent US20190203248A1.
